assay: chemical genetic growth profiling, strain panel (AID 1159580);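 note: tested at 20 µM; growth read once vehicle control cultures reached saturation at 30 °C; 1 = growth at the plate median or of vehicle wells; lower values mean less growth of the strain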; settings: S. cerevisiae deletion strains, growth OD, locus YLR357W, strain rsc2, stronger effect = lower value
The campaign covered roughly 5,500 compounds. About 2,000 (36%) were called active. Another 18% or so got no clear call; they are omitted. The list shows a part of the results.
What normalized growth was measured for each of the following?

The cases that follow already have their normalized growth on record.
compound | normalized growth
C/C=C/CC(C)C(O)C1C(=O)NC(CC)C(=O)N(C)CC(=O)N(C)C(CC(C)C)C(=O)NC(C(C)C)C(=O)N(C)C(CC(C)C)C(=O)NC(C)C(=O)NC(C)C(=O)N(C)C(CC(C)C)C(=O)N(C)C(CC(C)C)C(=O)N(C)C(C(C)C)C(=O)N1C (stereo not drawn) | 0.978 (inactive)
COC1=CC(=O)C=C(OC)C1=O | 0.99 (inactive)

Attention now turns to another entry.
Record C[C@@H](CO)NC(=O)C1C=C2c3cccc4[nH]cc(c34)C[C@H]2N(C)C1 (stereo partly drawn) . Reported normalized growth: 1 (inactive)

----------
assay: chemical genetic growth profiling, strain panel (AID 1159580);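 note: tested at 20 µM; growth read once vehicle control cultures reached saturation at 30 °C; 1 = growth at the plate median or of vehicle wells; lower values mean less growth of the strain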; conditions: S. cerevisiae deletion strains, growth OD, locus YLR384C, strain iki3, stronger effect = lower value
Among all 5,500 compounds or so, about 2,000 (36%) were called active. Not shown: some 18% with an inconclusive outcome. This is one part of the list.
value.type: normalized growth
Answers are plain numbers.

The cases that follow already have their normalized growth on record.
compound | value.type | obs.value
C[N+]1(C)C[C@H](O)[C@H](C(=O)[O-])C1 | normalized growth | 1.02
O=c1c2cc(O)c(O)cc2oc2cc(O)c(C3O[C@H](CO)[C@H](O)[C@@H](O)[C@H]3O)c(O)c12 (stereo not given in full) | normalized growth | 1.01
CC(C)=CC1C(CO)C1(C)C (stereo not given) | normalized growth | 0.999
Nc1ccc(S(=O)(=O)Nc2ncccn2)cc1 | normalized growth | 0.994

Attention now turns to another entry.
Record NCCCC(O)(P(=O)(O)O)P(=O)(O)O . Reported normalized growth: 0.978

----------
test: chemical genetic growth profiling, strain panel (AID 1159580);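 note: tested at 20 µM; growth read once vehicle control cultures reached saturation at 30 °C; 1 = growth at the plate median or of vehicle wells; lower values mean less growth of the strain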; conditions: S. cerevisiae deletion strains, growth OD, locus YDR101C, strain arx1, stronger effect = lower value
The whole screen tested about 5,500 compounds, of which about 2,000 (36%) were called active. About 18% were inconclusive and are not listed. This is one part of the list.
value.type: normalized growth

The cases that follow already have their normalized growth on record.
compound | normalized growth
COc1nc(NC(C)C)nc(NC(C)C)n1 | 1.01 (inactive)
CCOC(=O)C1=C(O)C(=O)N(Cc2ccccc2)C1 | 1 (inactive)
NCC(O)CC(=O)O (centres undefined) | 1.02 (inactive)

Record NC(N)=Nc1ccc(Cl)cc1 . Reported normalized growth: 0.99 (inactive)

----------
experiment: chemical genetic growth profiling, strain panel (AID 1159580);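 note: tested at 20 µM; growth read once vehicle control cultures reached saturation at 30 °C; 1 = growth at the plate median or of vehicle wells; lower values mean less growth of the strain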; settings: S. cerevisiae deletion strains, growth OD, locus YLR418C, strain cdc73, stronger effect = lower value
About 2,000 (36%) of roughly 5,500 compounds were called active. Not shown: some 18% with an inconclusive outcome. This is one part of the list.
value.type: normalized growth
Give bare numbers.

molecule | normalized growth
CC1CCCC(C)N1NC(=O)c1ccc(Cl)c(S(N)(=O)=O)c1 (stereo not drawn) | 1.01
Cc1ccccc1N1C(=O)c2cc(S(N)(=O)=O)c(Cl)cc2NC1C (stereo not drawn) | 0.98

Record NS(=O)(=O)c1cc2c(cc1C(F)(F)F)NC(Cc1ccccc1)NS2(=O)=O (stereo not drawn) . Reported normalized growth: 1.01
